B1: PDLIM4 (parent)
chain: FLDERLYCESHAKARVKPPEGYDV

Variants of: B1
ASSAY_DETAILS: protein stability index of a GFP-peptide fusion (GPS, HEK-293T) (PSI 1-6); higher = more stable;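 further: lentivirally expressed fusions sorted by FACS into six bins by GFP to DsRed ratio, PSI derived from sequencing read proportions per bin multiplied by bin number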
CONDITION_NOTES: c terminus: a fixed tail appended
protein stability index below 2 gives Criterion not met; protein stability index at or above it gives Criterion met.

Known results for variants:
{"columns": ["VARIANT", "CAT"],
 "data": [
  ["E4C", "Criterion met"],
  ["P18N", "Criterion not met"],
  ["Y7N", "Criterion met"],
  ["L2M", "Criterion not met"],
  ["D23N", "Criterion met"]
]}

Req: Assess whether reported protein stability index for `F1R` sits at 2 or higher.
Resp: Criterion met

Req: Assess whether reported protein stability index for `D3G` sits at 2 or higher.
Resp: Criterion not met

Source: the supplement of paper PMC10567573
